Test system: RPMI-8226 leukemia
assay_details: NCI-60 one-dose screen, 48 h (100 = growth as untreated, 0 = no growth, -100 = all killed)
condition_description: 10 µM unless noted
Compounds without any hit were thinned out: in the full panel of roughly 83,000, 20% have a hit. Active and inactive are the calls of the source. The calls were made as follows: active = growth percent below 10; inactive = the rest.

# compound, growth
records = [
    ("Cc1ccc(OCCn2ccc(=O)n(CCOc3ccc(Cl)cc3C(=O)c3cc(C)cc(C)c3)c2=O)cc1", "34.1% (inactive)"),
    ("FC(F)(F)c1cccc(-c2[nH]ncc2-c2nnnn2-c2ccccc2)c1", "29.6% (inactive)"),
    ("CCC(C)[C@H](NC(=O)Nc1cc(C(F)(F)F)cc(C(F)(F)F)c1)C(=O)N[C@@H](Cc1cn(C)cn1)C(=O)OC (stereo partly specified)", "-65.7% [100 µM] (active)"),
    ("Cc1[nH]n(C(=S)Nc2nc3cc(Cl)c(F)cc3s2)c(=O)c1N=Nc1ccc(F)c(Cl)c1", "70.9% (inactive)"),
    ("C=CCC(CCC(CC=C)C(=O)OCC)C(=O)OCC (stereo unspecified)", "101% (inactive)"),
    ("COc1cc(NC(=O)CSc2nc3ccc(Cl)cc3c(=O)n2-c2ccc(F)cc2)cc(OC)c1OC", "39.2% (inactive)"),
    ("N#CC1=C(N2CCOCC2)NC2c3ccccc3Sc3ccccc3N2C1=N (stereo unspecified)", "106% (inactive)"),
    ("COc1ccc2oc(=O)cc(CN3C(=O)S/C(=C\\c4ccc(Cl)cc4)C3=O)c2c1", "73.1% (inactive)"),
    ("CC(=O)OC1/C=C\\CC/C=C\\C1 (stereo unspecified)", "101% (inactive)"),
    ("CC1CCCCC[N+]12CCCC2 (stereo unspecified)", "100% (inactive)"),
    ("CC1(C)NC(=S)NC1=O", "101% (inactive)"),
    ("O=C(Nc1cccc(Cn2c(=O)[nH]c3ccc(Oc4ncccn4)cc3c2=O)c1)c1cc(Cl)cc(Cl)c1", "60.9% (inactive)"),
    ("O=C(O)CC1Cc2ccccc2C1C(=O)O (stereo unspecified)", "110% (inactive)"),
    ("COc1ccc2c(c1)/C(=C/c1c(-c3cc(OC)c(OC)c(OC)c3)nc3sccn13)C(=O)N2", "60.7% (inactive)"),
    ("COc1cc2oc(-c3ccc(NC(=O)c4ccccc4)cc3)cc(=O)c2c(OC)c1OC", "73.7% (inactive)"),
    ("COC(=O)[C@H](Cc1cn(C)cn1)NC(=O)[C@H](CC(=O)OCc1ccccc1)NC(=O)Nc1cc(C(F)(F)F)cc(C(F)(F)F)c1", "-65.4% [100 µM] (active)"),
    ("COC(=O)c1ccc2[nH]c(O)c(C(=Nc3ccc(N(C)C(=O)CN4CCN(C)CC4)cc3)c3cccc(OC)c3)c2c1", "4.7% (active)"),
    ("COc1cc(C(=O)Nc2ccc(N(C)C)cc2)cc(OC)c1OC", "97.7% (inactive)"),
    ("C/C=C(/C)C(=O)OC1C=C(CO)C(=O)C(OC(=O)C(C)(O)C(C)Cl)C1C(C)C (stereo unspecified)", "-33.5% (active)"),
    ("OCCN1CCCN(CCCN2c3ccccc3Sc3ccc(C(F)(F)F)cc32)CC1", "42.2% (inactive)"),
    ("CCOC(=O)c1c2c(cn1Cc1ccccc1)-c1oncc1CC2", "100% (inactive)"),
]

// data source = PubChem BioAssay (NCI)
